# test: Solubility of the compound in 0.01 M HCl at pH 2
# Assay type: physicochemical
reported-property: solubility

The examples below pair each entry with its known result.
| compound-string | observed-value |
| --- | --- |
| CNc1nc(NCCCN(C)C)c2sc(-c3ccc(C(=O)N4CCOCC4)cc3)cc2n1 | > 100 µg/mL |
| CNc1nc(NCCCN(C)C)c2sc(-c3ccc(OC(F)(F)F)cc3)cc2n1 | > 100 µg/mL |
| CNc1nc(NCCCN(C)C)c2sc(-c3cccc(C(F)(F)F)c3)cc2n1 | 180 µg/mL |
| CNc1nc(NCCCN(C)C)c2sc(-c3cncnc3)cc2n1 | 214 µg/mL |
| CNc1nc(NCCCN(C)C)c2sc(-c3ccc(N)cc3)cc2n1 | > 100 µg/mL |
| CNc1nc(NCCCN(C)C)c2sc(-c3ccc(OC)nc3)cc2n1 | > 100 µg/mL |

Which value of solubility has been reported for "CNc1nc(NCCCN(C)C)c2sc(-c3ccc(C(F)(F)F)cc3Cl)cc2n1" in the records?
> 100 µg/mL

Can you look up the measured solubility of "CNc1nc(NCCCN(C)C)c2sc(-c3ccc(S(C)(=O)=O)cc3)cc2n1" for me?
> 100 µg/mL

Look up solubility for this compound: "CNc1nc(NCCCN(C)C)c2sc(-c3cccc(C#N)c3)cc2n1"
> 100 µg/mL

Which solubility is listed for "CNc1nc(NCCCN(C)C)c2sc(-c3cc(C(F)(F)F)cc(C(F)(F)F)c3)cc2n1" ?
186 µg/mL

* * *

# test: physchem
# test-conditions: octanol/water, pH 7.4
reported-property: chromatographic logD

Field: example entries. Status: answers known.
| compound-string | chromatographic logD |
| --- | --- |
| CNc1nc(NCCCN(C)C)c2sc(-c3ccc(S(C)(=O)=O)cc3)cc2n1 | 2.1 |
| CNc1nc(NCCCN(C)C)c2sc(-c3ccc(C(F)(F)F)cc3Cl)cc2n1 | 4.5 |
| CNc1nc(NCCCN(C)C)c2sc(-c3ccccc3)cc2n1 | 2.2 |

A. CNc1nc(NCCCN(C)C)c2sc(-c3ccc(C(F)(F)F)cc3)cc2n1
B. CNc1nc(NCCCN(C)C)c2sc(-c3ccc(NS(C)(=O)=O)cc3)cc2n1
Identify the item whose chromatographic logD is the smaller number: A or B Please indicate the selected item by its label.
B
(B: 2.1, A: 4.1)

* * *

# test: Plasma concentration in Swiss outbred mouse infected with Plasmodium berghei at 50 mg/kg, po measured at 24 hrs
# Type: ADME, organism-based
# Design: dose 50 mg/kg, route oral
reported-property: concentration at 24 h (µM)

P. CNc1nc(NCCCN(C)C)c2sc(-c3ccc(F)cc3)cc2n1
Q. CNc1nc(NCCCN(C)C)c2sc(-c3ccc(C(F)(F)F)cc3)cc2n1
Between the entries labeled P and Q , whose measured concentration at 24 h is lower? // caller expects the label of the chosen entry
P
(P: 0.04 µM, Q: 0.21 µM)

* * *

Listed here: items and their measured solubility.
# test: Solubility of the compound in 0.01 M HCl at pH 2
# Assay type: physicochemical

Take a look at these entries with their results.
| compound-string | solubility |
| --- | --- |
| CNc1nc(NCCCN(C)C)c2sc(-c3ccc4nonc4c3)cc2n1 | > 100 µg/mL |
| CNc1nc(NCCCN(C)C)c2sc(-c3ccc(C(C)=O)cc3)cc2n1 | > 100 µg/mL |

We now examine a further molecule.
Item "CNc1nc(NCCCN(C)C)c2sc(-c3ccc(C(F)(F)F)nc3)cc2n1" has what recorded solubility?
> 100 µg/mL

* * *

# test: physchem
# test-conditions: octanol/water, pH 7.4
reported-property: chromatographic logD

Previously resolved entries follow.
| compound-string | reported-property | observed-value |
| --- | --- | --- |
| CNc1nc(NCCCN(C)C)c2sc(-c3ccc(OC(F)(F)F)cc3)cc2n1 | chromatographic logD | 4.6 |
| CNc1nc(NCCCN(C)C)c2sc(-c3ccc(C(F)(F)F)nc3)cc2n1 | chromatographic logD | 3 |
| CNc1nc(NCCCN(C)C)c2sc(-c3ccc(C(C)=O)cc3)cc2n1 | chromatographic logD | 2.9 |

P. CNc1nc(NCCCN(C)C)c2sc(-c3ccc(N4CCNCC4)cc3)cc2n1
Q. CNc1nc(NCCCN(C)C)c2sc(-c3ccc(N)cc3)cc2n1
Task for the reader: decide whether P or Q has the larger chromatographic logD. Your choice should be expressed through its label.
P

* * *

# test: physchem
# test-conditions: octanol/water, pH 7.4
reported-property: chromatographic logD

| compound-string | chromatographic logD |
| --- | --- |
| CNc1nc(NCCCN(C)C)c2sc(-c3ccc(C(=O)N4CCOCC4)cc3)cc2n1 | 2.2 |
| CNc1nc(NCCCN(C)C)c2sc(-c3ccc4nonc4c3)cc2n1 | 3.3 |
| CNc1nc(NCCCN(C)C)c2sc(-c3ccc(OC)nc3)cc2n1 | 2.8 |
| CNc1nc(NCCCN(C)C)c2sc(-c3ccc(N4CCOCC4)cc3)cc2n1 | 3 |

A. CNc1nc(NCCCN(C)C)c2sc(-c3cccc(C#N)c3)cc2n1
B. CNc1nc(NCCCN(C)C)c2sc(-c3cccc(OC(F)(F)F)c3)cc2n1
// task: argmin of chromatographic logD over [ A , B ] Label of pick, please.
A
(A: 2.9, B: 4.3)
